Numbers sourced from the supplement of paper PMC9170038.

Test system: K4 kissing-loop RNA reporter;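 note: bound reporter read as fluorescence of individual clusters on recovered sequencing chips by microscopy, with normalized cluster intensities fitted with a binding model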
Test: apparent KD of K4 kissing-loop reporter; higher = weaker reporter binding
Details: Eterna round: R107; input ligand: arginine 13.2 mM
property label: apparent KD of K4 kissing-loop reporter (nM)

- UGGAGUUGACGAAAAGUCAACUCCUGAGAUCGAGGACCGGUACGGCCGCCACUCGAGCUAACUGCGAGUGAUGUUCGAAAAUAAA [#OpenEnded 1 - Direct theophylline transfer]: 313
- GCCGUAGAUUGAAGGAGCGCCGCACAUGUCCCGCUUAGUGUAGUGAUGUUACAGUGUCAGCGGCAGGUAGGUCGCAAUCUACGGC: 183
- GCCUAGCAGCGAAGGAGCGCCAGGAGAAGAAAUGGAGAGAGUUGAGUGAUGUUCAAAUGGUGGCAGGUAGGUCGCGCUGCUAGGC [#08 K4 Arginine B Same State]: 261

---

System: MS2 coat protein
Test: apparent KD of MS2 coat protein; designed switch direction (-1 OFF switch, 1 ON switch): -1; higher = weaker reporter binding
Conditions: Eterna round: R95; input ligand: FMN 200 uM
Measured apparent KD of MS2 coat protein, listed per entry.
property label: apparent KD of MS2 coat protein (nM)

- AAGUACCGUCACGAUAGUGAUGGUACAACAGGCAGUGAAACAUGAGGAUCACCCAUGUCCUCAAUUGCUCGUCUUAU [Sensor 3 - 77] (puzzle: Sensor v3, turn-off variant 2): 77.6
- UAAUGCAAGCAAAGAUCUUACAUGAGGAUCACCCAUGUGCUCGUCUUAUAAAGUACUAUCACGAAAGUGAUAGUACU [Mat - Sensor v3 - turn-off var 1 - Eli Mod - D92] (puzzle: Sensor v3, turn-off variant 1): 31.5

---

Measured apparent KD of MS2 coat protein, listed per entry.
Test system: MS2 coat protein
Experiment: apparent KD of MS2 coat protein; designed switch direction (-1 OFF switch, 1 ON switch): 1; higher = weaker reporter binding
Conditions: input ligand: FMN 200 uM
property label: apparent KD of MS2 coat protein (nM)

- ACAGAGUGAAGACAGGAUAUUCGCGAUGGCACAUGAGGAUCACCCAUGUUUUGAGCACAUAAACAGAAGAAGGGUUAAAACUCAG [Zadier] (Eterna round: R96, puzzle: Same State 2): 13.6
- GCUCGAUGUGCUGUUUACAUGAGGAUCACCCAUGUAGAUGCGGAGGAUAUCUACGUGCUUUAUGUAGAGAAGGCCGUAUCGAGC [SameState NG3 #82] (Eterna round: R96, puzzle: Same State NG 3): 15
- AAACGGUCGCUGCGGCAACCACAUGAGGAUCACCCAUGUACAUAGGAUAUCGCCUAAAAUACUGGCGAGAAGGGUGAUUAAAGA [Onbiriza] (Eterna round: R96, puzzle: Same State NG 3): 28.7

---

Tested on: MS2 coat protein
Experiment: apparent KD of MS2 coat protein; designed switch direction (-1 OFF switch, 1 ON switch): -1; higher = weaker reporter binding
Conditions: Eterna round: R95; input ligand: FMN 200 uM
Label Met when apparent KD of MS2 coat protein is at or above 60 nM; otherwise label Not met.

- UCAUACGGUGAGGAUAUCUCCACUAAAGUGUGAAGAGAAGGCGCUACAUGAGGAUCACCCAUGUCUAUGGGCAG [Ex-6 Malc#15] (puzzle: Exclusion 6): Not met
- CCGGAAUAACAGGAUAUAGGAGUCGAUAGACACCUAGAAGGGUUGACAUGAGGAUCACCCAUGUGUCCUACCGG [Fiskers Ex 6 - 81] (puzzle: Exclusion 6): Met
- AUGAGGUUAGGAUAUACAUGAGGAUCACCCAUGUUGAAAGGAUAGAUAAGAAAAGAUAGUAGAAGGAACAAAGA [JR_Exclu3_Sub052] (puzzle: Exclusion 3): Not met
- UAAUAAAGUGUGAGGAUAUGCUGGUCCUUAGAUCAGCAGAAGGCACAUGAGGAUCACCCAUGUAAUAUAUAAAU [Mat - Exclusion 4 - JL Mod - D56] (puzzle: Brourd's mod of Exclusion 4): Met
- UGUACGAUGCGUGCUGACAUGCGUCGUGCAGCAGGUGUUACAUGAGGAUCACCCAUGUCCUCAUUUGCUCGUCUUGU [SL-sv3-2.09 JL mod] (puzzle: Sensor v3, turn-off variant 2): Met
- AAAAUACAAGCAAGAUCCUACAUGAGGAUCACCCAUGUGCUCGUCUUAUAAAGUACUAUCACGAAAGUGAUAGUACA [Mat - Sensor v3 - turn-off var 1 - Eli Mod - D59] (puzzle: Sensor v3, turn-off variant 1): Met
- CCGCAUAAGCAGGAUAUCGUAUCGGAAACGAUACGAGAAGGGUUUACAUGAGGAUCACCCAUGUUCCUUAGCGG [Mat - Exclusion 6 - Eli Mod - D100] (puzzle: Exclusion 6): Not met
